system: white blood cells and subsets (lymphocytes, neutrophils, eosinophils); assay: Differential white blood cell counts (immune suppression), MAD; assay type: in vivo, human; conditions: MAD 9.0 mg/kg; Day 2 predose; mean
assay_readout: Eosinophils

[
  {
    "chemical_string": "C[C@@H]1C[C@H]2[C@@H]3CCC4=CC(=O)C=C[C@]4(C)C3=CC[C@]2(C)[C@@]1(O)C(=O)CO",
    "target_entity": "white blood cells and subsets (lymphocytes, neutrophils, eosinophils)",
    "assay_readout": "Eosinophils",
    "reported": "0.13 10^9/L"
  }
]

====

system: white blood cells and subsets (lymphocytes, neutrophils, eosinophils); assay: Differential white blood cell counts (immune suppression), MAD; assay type: in vivo, human; settings: MAD 20.0 mg/kg; Screening, baseline; mean

[
  {
    "chemical_string": "C[C@@H]1C[C@H]2[C@@H]3CCC4=CC(=O)C=C[C@]4(C)C3=CC[C@]2(C)[C@@]1(O)C(=O)CO",
    "Eosinophils": "0.25 10^9/L"
  }
]

====

system: white blood cells and subsets (lymphocytes, neutrophils, eosinophils); experiment: Differential white blood cell counts (immune suppression), MAD; format: in vivo, human; details: MAD 20.0 mg/kg; Day 2 predose; mean

[
  {
    "chemical_string": "C[C@@H]1C[C@H]2[C@@H]3CCC4=CC(=O)C=C[C@]4(C)C3=CC[C@]2(C)[C@@]1(O)C(=O)CO",
    "Eosinophils": "0.17 10^9/L"
  }
]

====

test system: white blood cells and subsets (lymphocytes, neutrophils, eosinophils); assay: Differential white blood cell counts (immune suppression), MAD; format: in vivo, human; conditions: MAD 9.0 mg/kg; Day -1, baseline; mean

[
  {
    "molecule": "C[C@@H]1C[C@H]2[C@@H]3CCC4=CC(=O)C=C[C@]4(C)C3=CC[C@]2(C)[C@@]1(O)C(=O)CO [vamorolone]",
    "Eosinophils": "0.12 10^9/L"
  }
]

====

system: white blood cells and subsets (lymphocytes, neutrophils, eosinophils); assay: Differential white blood cell counts (immune suppression), MAD; type: in vivo, human; conditions: MAD 1.0 mg/kg; Screening, baseline; mean
assay_readout: Eosinophils

[
  {
    "chemical_string": "C[C@@H]1C[C@H]2[C@@H]3CCC4=CC(=O)C=C[C@]4(C)C3=CC[C@]2(C)[C@@]1(O)C(=O)CO",
    "reported": "0.13 10^9/L"
  }
]

====

assay: SAD food effect cohort (8 mg/kg with high fat/high calorie meal) pharmacokinetics; assay type: in vivo, human; details: human, plasma; single oral 8 mg/kg, fed; geometric mean (%CV); read-out: t½ (converted)
assay_readout: half-life (h)

[
  {
    "chemical_string": "C[C@@H]1C[C@H]2[C@@H]3CCC4=CC(=O)C=C[C@]4(C)C3=CC[C@]2(C)[C@@]1(O)C(=O)CO",
    "unit_text": "h",
    "reported": 2.35
  }
]

====

Assay: Phase 1 single ascending dose (SAD) pharmacokinetics, fasted
Assay type: in vivo, human
Conditions: male, human, plasma; single oral 0.1 mg/kg, fasted; geometric mean (%CV)
Excerpt: This clinical trial was a randomized, double-blind, placebo controlled single ascending (SAD) and multiple ascending (MAD) study to evaluate the safety, tolerability, and pharmacokinetics of vamorolone in health adult subjects. The study protocol and its amendments were reviewed and approved by an Institutional Review Board. […]

[
  {
    "molecule": "C[C@@H]1C[C@H]2[C@@H]3CCC4=CC(=O)C=C[C@]4(C)C3=CC[C@]2(C)[C@@]1(O)C(=O)CO [vamorolone]",
    "Cmax, µg/mL": 0.0131
  }
]
